Just for reference, ChEMBL document CHEMBL4715829 is where these values come from.

# Tested on: Pseudomonas aeruginosa
# procedure details: Antibacterial activity against Pseudomonas aeruginosa 750 harboring efflux mutant assessed as reduction in bacterial growth incubated for 18 hrs by broth microdilution assay
# Format: functional
endpoint name: MIC (µg/mL)
Record the value in µg/mL, omitting the unit from your answer.

NC[C@H]1O[C@H](O[C@H]2[C@H](O)[C@@H](O[C@H]3O[C@H](CO)[C@@H](O)[C@H](N)[C@H]3O)[C@H](N)C[C@@H]2N)[C@H](N)C[C@@H]1O [TOBRAMYCIN]	0.5

GET /values?readout=MIC&item= `CO[C@H]1/C=C/O[C@@]2(C)Oc3c(C)c(O)c4c(O)c(c(/C=N/N5CCN(Cc6cn(CCCCCCCCCCCCO[C@@H]7[C@@H](O[C@H]8O[C@H](CO)[C@@H](O)[C@H](N)[C@H]8O)[C@H](N)C[C@H](N)[C@H]7O[C@H]7O[C@H](CN)[C@@H](O)C[C@H]7N)nn6)CC5)c(O)c4c3C2=O)NC(=O)/C(C)=C\C=C\[C@H](C)[C@H](O)[C@@H](C)[C@@H](O)[C@@H](C)[C@H](OC(C)=O)[C@@H]1C.O=C(O)C(F)(F)F.O=C(O)C(F)(F)F.O=C(O)C(F)(F)F.O=C(O)C(F)(F)F.O=C(O)C(F)(F)F` 128

Another molecule: CO[C@H]1/C=C/O[C@@]2(C)Oc3c(C)c(O)c4c(O)c(c(/C=N/N5CCN(C)CC5)c(O)c4c3C2=O)NC(=O)/C(C)=C\C=C\[C@H](C)[C@H](O)[C@@H](C)[C@@H](O)[C@@H](C)[C@H](OC(C)=O)[C@@H]1C [RIFAMPIN] 32

Another molecule: `CO[C@H]1/C=C/O[C@@]2(C)Oc3c(C)c(O)c4c(O)c(c(/C=N/N5CCN(Cc6cn(CCCCCCO[C@@H]7[C@@H](O[C@H]8O[C@H](CO)[C@@H](O)[C@H](N)[C@H]8O)[C@H](N)C[C@H](N)[C@H]7O[C@H]7O[C@H](CN)[C@@H](O)C[C@H]7N)nn6)CC5)c(O)c4c3C2=O)NC(=O)/C(C)=C\C=C\[C@H](C)[C@H](O)[C@@H](C)[C@@H](O)[C@@H](C)[C@H](OC(C)=O)[C@@H]1C.Cl.Cl.Cl.Cl.Cl` 256

###

# System: Pseudomonas aeruginosa
# procedure details: Antibacterial activity against gentamicin, tobramycin-resistant Pseudomonas aeruginosa CANWARD 96846 assessed as reduction in bacterial growth incubated for 18 hrs by broth microdilution assay
# Type: functional
endpoint name: MIC (µg/mL)
Record the value in µg/mL, omitting the unit from your answer.

NC[C@H]1O[C@H](O[C@H]2[C@H](O)[C@@H](O[C@H]3O[C@H](CO)[C@@H](O)[C@H](N)[C@H]3O)[C@H](N)C[C@@H]2N)[C@H](N)C[C@@H]1O [TOBRAMYCIN]	256

Attention now shifts to the item below.
GET /values?readout=MIC&item= CO[C@H]1/C=C/O[C@@]2(C)Oc3c(C)c(O)c4c(O)c(c(/C=N/N5CCN(C)CC5)c(O)c4c3C2=O)NC(=O)/C(C)=C\C=C\[C@H](C)[C@H](O)[C@@H](C)[C@@H](O)[C@@H](C)[C@H](OC(C)=O)[C@@H]1C [RIFAMPIN] 32

###

# Tested on: Pseudomonas aeruginosa
# procedure details: Antibacterial activity against Pseudomonas aeruginosa 259-96918 assessed as reduction in bacterial growth incubated for 18 hrs by broth microdilution assay
# Assay type: functional
endpoint name: MIC (µg/mL)
Record the value in µg/mL, omitting the unit from your answer.

CO[C@H]1/C=C/O[C@@]2(C)Oc3c(C)c(O)c4c(O)c(c(/C=N/N5CCN(C)CC5)c(O)c4c3C2=O)NC(=O)/C(C)=C\C=C\[C@H](C)[C@H](O)[C@@H](C)[C@@H](O)[C@@H](C)[C@H](OC(C)=O)[C@@H]1C	16

Attention now shifts to the item below.
Recorded MIC for `NC[C@H]1O[C@H](O[C@H]2[C@H](O)[C@@H](O[C@H]3O[C@H](CO)[C@@H](O)[C@H](N)[C@H]3O)[C@H](N)C[C@@H]2N)[C@H](N)C[C@@H]1O` with Pseudomonas aeruginosa, please? 256
